Cited source for all entries: patent US11696917B2

Recorded pIC50 for the following molecules
System: HER2-overexpressing human breast cancer cell line SK-BR-3 cells
experimentDescription: Cytostatic activity against HER2-expressing cell line (SK-BR-3), CellTiter-Glo
Assay type: cell-based
particulars: 3-day culture; read-out: SK-BR-3 cell growth inhibitory activity IC50 value
pIC50: −log10 of the molar value.

{"molecule": "C=CC(=O)N1CCC[C@@H](n2nc(C(=O)Nc3ccc(CC(=O)N(C)C)c4c3OCO4)c3c(N)ncnc32)C1", "pIC50": 7.74}
{"molecule": "C=CC(=O)N1CCC[C@@H](n2nc(C(=O)Nc3cc(Br)c(CC(=O)N(C)C)cc3C)c3c(N)ncnc32)C1", "pIC50": 7.70}
{"molecule": "C=CC(=O)N1CCC[C@@H](n2nc(C(=O)Nc3cc(C)c(CC(=O)N(C)C)cc3Cl)c3c(N)ncnc32)C1", "pIC50": 7.52}
{"molecule": "C=CC(=O)N1CCC[C@@H](n2nc(C(=O)Nc3ccc(OC(=O)N(C)C)c(C)c3C)c3c(N)ncnc32)C1", "pIC50": 7.85}
{"molecule": "C=CC(=O)N1CCC[C@@H](n2nc(C(=O)Nc3ccc(CC(=O)N(C)C)c4ccccc34)c3c(N)ncnc32)C1", "pIC50": 7.96}
{"molecule": "C=CC(=O)N1CCC[C@@H](n2nc(C(=O)Nc3ccc(CC(=O)N(C)C)cc3OC)c3c(N)ncnc32)C1", "pIC50": 7.51}
{"molecule": "C=CC(=O)N1CCC[C@@H](n2nc(C(=O)Nc3ccc(CC(=O)N(C)C)c(C)c3Cl)c3c(N)ncnc32)C1", "pIC50": 8.05}
{"molecule": "C=CC(=O)N1CCC[C@@H](n2nc(C(=O)Nc3ccc(CC(=O)N(C)C)cc3Cl)c3c(N)ncnc32)C1", "pIC50": 7.85}
{"molecule": "C=CC(=O)N1CCC[C@@H](n2nc(C(=O)Nc3ccc(OC(=O)N(C)C)cc3Cl)c3c(N)ncnc32)C1", "pIC50": 8.05}
{"molecule": "C=CC(=O)N1CCC[C@@H](n2nc(C(=O)Nc3ccc(CC(=O)N(C)C)c(F)c3OC)c3c(N)ncnc32)C1", "pIC50": 8.00}
{"molecule": "C=CC(=O)N1CCC[C@@H](n2nc(C(=O)Nc3ccc(CC(=O)N(C)C)c(Cl)c3OC)c3c(N)ncnc32)C1", "pIC50": 7.92}
{"molecule": "C=CC(=O)N1CCC[C@@H](n2nc(C(=O)Nc3cc(C)c(OC(=O)N(C)C)cc3C)c3c(N)ncnc32)C1", "pIC50": 7.92}
{"molecule": "C=CC(=O)N1CCC[C@@H](n2nc(C(=O)Nc3ccc(CC(=O)N(C)C)cc3Br)c3c(N)ncnc32)C1", "pIC50": 7.89}
{"molecule": "C=CC(=O)N1CCC[C@@H](n2nc(C(=O)Nc3cc(Cl)c(CC(=O)N(C)C)cc3C)c3c(N)ncnc32)C1", "pIC50": 7.62}
{"molecule": "C=CC(=O)N1CCC[C@@H](n2nc(C(=O)Nc3ccc(CC(=O)N(C)C)cc3OC(F)F)c3c(N)ncnc32)C1", "pIC50": 7.52}

* * *

testTarget: purified recombinant human HER2 protein (Homo sapiens (Human), UniProt P04626)
Sequence (P04626 23-1255): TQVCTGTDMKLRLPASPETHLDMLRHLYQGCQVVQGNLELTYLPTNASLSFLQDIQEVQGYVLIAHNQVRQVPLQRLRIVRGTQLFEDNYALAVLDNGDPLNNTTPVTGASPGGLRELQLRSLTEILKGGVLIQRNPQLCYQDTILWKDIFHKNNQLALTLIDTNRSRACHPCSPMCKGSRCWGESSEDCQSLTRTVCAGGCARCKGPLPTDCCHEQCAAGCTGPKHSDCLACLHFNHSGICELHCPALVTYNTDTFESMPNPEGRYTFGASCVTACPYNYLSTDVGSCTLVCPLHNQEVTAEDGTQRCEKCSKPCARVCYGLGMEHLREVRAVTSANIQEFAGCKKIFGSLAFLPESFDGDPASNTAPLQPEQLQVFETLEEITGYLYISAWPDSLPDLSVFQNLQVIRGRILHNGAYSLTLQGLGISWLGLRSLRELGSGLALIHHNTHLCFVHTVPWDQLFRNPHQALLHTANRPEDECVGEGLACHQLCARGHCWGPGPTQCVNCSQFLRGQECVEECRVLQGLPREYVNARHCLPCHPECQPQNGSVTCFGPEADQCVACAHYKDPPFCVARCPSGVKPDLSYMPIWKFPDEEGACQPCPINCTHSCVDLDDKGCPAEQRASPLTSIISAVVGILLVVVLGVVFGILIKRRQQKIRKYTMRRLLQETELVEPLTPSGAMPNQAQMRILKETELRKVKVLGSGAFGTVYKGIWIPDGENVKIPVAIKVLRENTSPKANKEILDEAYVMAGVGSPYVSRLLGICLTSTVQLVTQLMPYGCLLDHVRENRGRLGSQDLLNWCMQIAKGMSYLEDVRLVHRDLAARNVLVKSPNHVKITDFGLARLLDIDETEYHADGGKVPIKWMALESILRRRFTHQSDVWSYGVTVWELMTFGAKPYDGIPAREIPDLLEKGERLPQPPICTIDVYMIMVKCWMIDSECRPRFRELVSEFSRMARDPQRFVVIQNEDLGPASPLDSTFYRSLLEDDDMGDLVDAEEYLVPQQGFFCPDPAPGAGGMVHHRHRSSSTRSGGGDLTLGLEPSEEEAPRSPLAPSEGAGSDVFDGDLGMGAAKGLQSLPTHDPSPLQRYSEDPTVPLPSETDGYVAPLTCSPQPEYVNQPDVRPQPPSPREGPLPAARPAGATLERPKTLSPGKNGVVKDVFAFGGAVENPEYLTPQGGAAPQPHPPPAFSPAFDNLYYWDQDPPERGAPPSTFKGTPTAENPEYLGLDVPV
experimentDescription: Measurement of inhibitory effect on HER2-phosphorylating activity (in vitro)
Assay type: biochemical
particulars: ATP 6 μM, 25° C., 40 minutes
measureName: IC50 (nM)

{"molecule": "C=CC(=O)N1CCC[C@@H](n2nc(C(=O)Nc3ccc(CC(=O)N(C)C)c(OC)c3)c3c(N)ncnc32)C1", "quantitativeReadout": 23}
{"molecule": "C=CC(=O)N1CCC[C@@H](n2nc(C(=O)Nc3cc(Cl)c(CC(=O)N(C)C)cc3OC)c3c(N)ncnc32)C1", "quantitativeReadout": 10}
{"molecule": "C=CC(=O)N1CCC[C@@H](n2nc(C(=O)Nc3ccc(OC(=O)N(C)C)cc3C)c3c(N)ncnc32)C1", "quantitativeReadout": 7}
{"molecule": "C=CC(=O)N1CCC[C@@H](n2nc(C(=O)Nc3ccc(CC(=O)N(C)C)cc3Cl)c3c(N)ncnc32)C1", "quantitativeReadout": 4}
{"molecule": "C=CC(=O)N1C[C@H](n2nc(C(=O)Nc3ccc(CC(=O)N(C)C)c(C)c3C)c3c(N)ncnc32)C[C@@H]1C", "quantitativeReadout": 17}
{"molecule": "C=CC(=O)N1CCC[C@@H](n2nc(C(=O)Nc3ccc(CC(=O)N(C)C)cc3N(C)C)c3c(N)ncnc32)C1", "quantitativeReadout": 52}
{"molecule": "C=CC(=O)N1CC[C@@H](n2nc(C(=O)Nc3cc(Cl)c(CC(=O)N(C)C)cc3C)c3c(N)ncnc32)C1", "quantitativeReadout": 72}
{"molecule": "C=CC(=O)N1CCC[C@@H](n2nc(C(=O)Nc3cc(Cl)c(CC(=O)N(C)C)cc3Cl)c3c(N)ncnc32)C1", "quantitativeReadout": 13}
{"molecule": "C=CC(=O)N1CCC[C@@H](n2nc(C(=O)Nc3ccc(CC(=O)N(C)C)c(C)c3Cl)c3c(N)ncnc32)C1", "quantitativeReadout": 7.1}
{"molecule": "C=CC(=O)N1CC[C@@H](n2nc(C(=O)Nc3ccc(CC(=O)N(C)C)cc3Cl)c3c(N)ncnc32)C1", "quantitativeReadout": 31}
{"molecule": "C=CC(=O)N1CCCC(n2nc(Nc3ccc(C(=O)N(C)C)cc3)c3c(N)ncnc32)C1 (stereo not shown)", "quantitativeReadout": 26}
{"molecule": "C=CC(=O)N1CCC[C@@H](n2nc(C(=O)Nc3ccc(CC(=O)N(C)C)cc3C#N)c3c(N)ncnc32)C1", "quantitativeReadout": 20}
{"molecule": "C=CC(=O)N1CC[C@@H](n2nc(C(=O)Nc3ccc(CC(=O)N(C)C)cc3Br)c3c(N)ncnc32)C1", "quantitativeReadout": 59}
{"molecule": "C=CC(=O)N1CCC[C@@H](n2nc(C(=O)Nc3ccc(CC(=O)N(C)C)cc3OCF)c3c(N)ncnc32)C1", "quantitativeReadout": 10}
{"molecule": "C=CC(=O)N1CCC[C@@H](n2nc(C(=O)Nc3cc(F)c(CC(=O)N(C)C)cc3C)c3c(N)ncnc32)C1", "quantitativeReadout": 13}
{"molecule": "C=CC(=O)N1CCC[C@@H](n2nc(C(=O)Nc3ccc(CC(=O)N(C)C)cc3-c3ccco3)c3c(N)ncnc32)C1", "quantitativeReadout": 17}
{"molecule": "C=CC(=O)N1CCC[C@@H](n2nc(C(=O)Nc3cc(C)c(CC(=O)N(C)C)cc3Cl)c3c(N)ncnc32)C1", "quantitativeReadout": 8.3}
{"molecule": "C=CC(=O)N1CC[C@@H](n2nc(C(=O)Nc3ccc(CC(=O)N(C)C)c4ccccc34)c3c(N)ncnc32)C1", "quantitativeReadout": 13}
{"molecule": "C=CC(=O)N1CCC[C@@H](n2nc(C(=O)Nc3ccc(CC(=O)N(C)C)c(F)c3OC)c3c(N)ncnc32)C1", "quantitativeReadout": 4.6}
{"molecule": "C=CC(=O)N1CC[C@@H](n2nc(C(=O)Nc3ccc(CC(=O)N(C)C)cc3C=C)c3c(N)ncnc32)C1", "quantitativeReadout": 20}
{"molecule": "C=CC(=O)N1CCC[C@@H](n2nc(C(=O)Nc3ccc(CC(=O)N(C)C)cc3C=C)c3c(N)ncnc32)C1", "quantitativeReadout": 8.5}
{"molecule": "C=CC(=O)N1CCC[C@@H](n2nc(C(=O)Nc3ccc(CC(=O)N(C)C)cc3OC)c3c(N)ncnc32)C1", "quantitativeReadout": 7.1}
